observedProperty: melting point

The cases that follow already have their melting point on record.
INSERT INTO results (molecule, observedproperty, result) VALUES
  ('C=C(C)c1cc(NC(=O)N2CCN(c3cc(OC)cc(OC)c3)CC2)c(OC)nc1C', 'melting point', '83 to 85 °C'),
  ('CCN(CC)c1ccc(C(=O)Cn2ncc(-c3ccc(S(C)(=O)=O)cc3)c(-c3ccc(F)cc3)c2=O)cc1', 'melting point', '105 to 108 °C'),
  ('Cn1c2ccccc2c2nc3cccc(CCl)c3nc21', 'melting point', '204 to 206 °C');

Data request: Look up and report measured melting point for this entry: CC(NC(=O)OC(C#N)c1cccc(Oc2ccccc2)c1)c1cccc2ccccc12 (centres undefined)
Data returned: 122 °C

Data request: Return reported melting point. Input molecule: COc1ccc(/C=C/c2nc3cc([N+](=O)[O-])ccc3[nH]2)cc1OC
Data returned: 223 to 225 °C

Data request: Specify reported melting point for the molecule shown: CC(C)(C)OC(=O)c1ccsc1NC(=O)Nc1ccc(Oc2ccccc2)cc1
Data returned: 203 to 205 °C

====

observedProperty: melting point

INSERT INTO assay_data (molecule, result) VALUES
  ('CC(C)(C)C(O)Cn1ccnc1 (stereo not given)', '239 to 241 °C');

Data request: Look up and state reported melting point for O=C(O)CCc1ccnc(-c2nc(=O)c3ccc(Br)cc3s2)c1
Data returned: 258 to 259 °C

Data request: Return value of melting point for input COc1cc2c(c(Cl)c1Cl)C(=O)C(C)(C(C)C)C2 (stereo not given) , no commentary.
Data returned: 143 °C

====

Listing: melting point of selected molecules

A selection of reference data follows.
INSERT INTO assay_data (molecule, observedproperty, result) VALUES
  ('NC(=O)c1cccc(-c2nc3sccn3c2-c2ccnc(N[C@@H]3CCCN(S(=O)(=O)c4ccc(Cl)cc4)C3)n2)c1', 'melting point', '168 to 170 °C'),
  ('CCCCCCCCCCCCCCCCCCS(=O)c1cc2ccccc2c(N=Nc2ccc(OC)cc2)c1O (centres undefined)', 'melting point', '108 to 110 °C'),
  ('O=C(Nc1cccc2c(=O)cc(C(=O)O)oc12)c1ccc2c(c1)CC(CSCc1ccccc1)O2 (centres undefined)', 'melting point', '122 to 125 °C'),
  ('CCCCC(=O)c1ccc(C(=O)Nc2ccc3cc(CN4CCCC4)cnc3c2C)cc1', 'melting point', '180 °C'),
  ('CC(=O)c1ccc(CCCOc2c(C)cc(N3CN=C(C(F)F)O3)cc2C)nn1', 'melting point', '95 to 96 °C');

Data request: Note down melting point recorded for CC(C)(COc1ccc(CC2SC(=O)NC2=O)cc1)c1ccccc1 (centres undefined)
Data returned: 107 to 108 °C

Data request: Please supply the value of reported melting point for the item O=c1ccc(-c2ccc(Oc3ccc4c(c3)CCN(C3CCC3)CC4)nc2)n[nH]1
Data returned: 215 to 220 °C

Data request: Return melting point (reported value) for this molecule: O=C1CCC(N2Cc3c(O)cccc3C2=O)C(=O)N1 (centres undefined)
Data returned: 296 °C

Data request: Indicate its recorded melting point; the molecule in question is CNc1nc2c(c(N3CCN(C=O)CC3)n1)SCCC2
Data returned: 149 to 151 °C

====

observedProperty: melting point

INSERT INTO assay_data (compound, observedproperty, result) VALUES
  ('CN1CCN(c2cc3c(cc2F)c(=O)n(O)c(=O)n3-c2cccc(F)c2)CC1', 'melting point', '176 to 178 °C'),
  ('CCCCc1cccc(-c2nc(C(C)C)n(C)n2)n1', 'melting point', '58.1 °C'),
  ('CCc1cccc(C)c1CNc1cc(C(=O)N(C)C)nc2c(C)c(C)[nH]c12', 'melting point', '260 to 262 °C'),
  ('O=Cc1ccc2oc(-c3ccc4ccc(Cl)cc4n3)cc2c1', 'melting point', '235 to 236 °C'),
  ('C=CCc1cc2c(c(CC=C)c1O)NC(=O)CO2', 'melting point', '114 to 115 °C'),
  ('OCC1CC(n2c(Br)nc3cc(Cl)c(Cl)cc32)C(O)C1O (stereo not given)', 'melting point', '208 to 211 °C'),
  ('CCN(CC)C(=O)c1ccc2ccccc2c1-c1ccc(C(F)(F)F)cc1', 'melting point', '111 to 112 °C'),
  ('CC(=O)OCc1nc2cc(Cl)c(C)cc2c(=O)[nH]1', 'melting point', '220 to 225 °C'),
  ('CCOC(=O)C#CC(C)(C)OC(=O)Nc1ccc(-c2ncn(-c3ccc(OC(F)(F)F)cc3)n2)cc1', 'melting point', '183 to 188 °C');

Now for another entry.
Data request: # return recorded melting point for input CC(=O)CN(C(=O)c1ccco1)c1c(C)cccc1C
Data returned: 90 to 91 °C

====

# melting point values compiled below

Some solved cases for reference:
INSERT INTO results (compound, result) VALUES
  ('CSc1ccc(-c2nn(Cc3ccc(Cl)cc3Cl)c(=O)cc2-c2ccc(F)cc2)cc1', '139 to 140 °C'),
  ('COC(=O)CCCc1cc2cc(C(F)(F)F)ccc2n1S(=O)(=O)c1ccc2nc(C)sc2c1', '163 to 168 °C'),
  ('CC(C)(C)CNc1ccnc2sc(C(N)=O)c(N)c12', '238 to 240 °C');

Data request: Look up melting point of CC(=CC(=O)c1cccnc1)NCC(O)COc1ccc(NC(=O)NC2CCCCC2)cc1 (centres undefined) and report it.
Data returned: 168 °C

Data request: Quick one: give measured melting point for COCC1OC(n2cnc3c(NCc4cccc(I)c4)ncnc32)C(O)C1O (centres undefined)
Data returned: 155 to 157 °C

Data request: # return recorded melting point for input Cc1c(C(=O)Nc2ccc(N3CCC(N4CCNCC4)CC3)c(C#N)c2)cnn1-c1ccc(Cl)cc1
Data returned: 226 °C

Data request: Please report melting point for the following compound: COC(=O)C(c1ccccc1)C1CCN(c2ccc(N)cc2)CC1 (centres undefined)
Data returned: 125 °C

Data request: Consider the compound O=C(/C=C/c1ccc(C(F)(F)F)cc1-c1ccncc1)Nc1ccc2[nH]ccc2c1 and give its recorded melting point.
Data returned: 229 to 234 °C

Data request: State, in one line, measured melting point of Cc1c(NC(=O)c2ccc(-c3ccc(F)cc3)cc2)ccc2cc(CN(C(C)C)C(C)C)cnc12
Data returned: 179 to 180 °C

====

Documented melting point across a set of compounds

Example cases with answers are listed next.
INSERT INTO results (cpdsmiles, observedproperty, result) VALUES
  ('COc1ccc(OCCCCCCI)cc1', 'melting point', '64 to 66 °C'),
  ('O=C(Nc1ccc(SC(F)(F)F)cc1)c1cc(S(=O)(=O)c2ccccc2)c2ccccc2c1O', 'melting point', '271 to 272 °C'),
  ('CN1CCC(Oc2cc3c(cc2F)c(=O)c(C(=O)O)cn3C2CC2)CC1', 'melting point', '265 to 269 °C'),
  ('CN1C(=O)CC[C@]2(C)c3ccc(Sc4nc5c(Br)cccc5s4)cc3CC[C@@H]12', 'melting point', '206 to 210 °C'),
  ('CC(=O)c1ccc(S(=O)(=O)NCCN2CCOCC2)cc1', 'melting point', '128 to 129 °C');

Data request: For CC(C)n1nc(-c2nc(C(N)=S)c(N)nc2-c2ccccc2)ccc1=O , write its melting point.
Data returned: > 250 °C

Data request: Retrieve melting point measured for CC(C)n1c(=O)sc2cc([N+](=O)[O-])ccc21 and print it.
Data returned: 138 to 142 °C

Data request: Give the value of melting point reported for the following: Cc1cc(NC(=O)NS(=O)(=O)c2ccccc2)cc(C)c1S(=O)(=O)C[N+](=O)[O-]
Data returned: 140 to 142 °C

Data request: Return the recorded melting point value; entry: CC(=O)NCc1cc(-c2ccccc2)c2c(n1)OCCN(Cc1cc(C(F)(F)F)cc(C(F)(F)F)c1)C2=O
Data returned: 223 to 224 °C

Data request: Give the value of melting point reported for the following: CCc1nnc2c(NC(C)=O)nc3ccccc3n12
Data returned: 193 to 195 °C

====

Recorded measurements of melting point, one per entry

Known melting point results, listed for orientation:
INSERT INTO results (compound, result) VALUES
  ('COc1ccc(-c2ccc(C=O)c(Cl)c2)cc1F', '116 to 118 °C'),
  ('CC1(C)COc2cc3c(cc21)C1(CO3)CN(Cc2ccccn2)c2ccccc21 (stereo unspecified)', '145 to 147 °C'),
  ('O=C(CCCCl)c1ccc2cc(O)c(O)cc2c1', '129 to 135 °C');

// next item, melting point requested
Data request: Entry CC=CCNc1cc(C(=O)O)cc(S(N)(=O)=O)c1Nc1ccc(NC(C)=O)cc1 needs its melting point filled in; supply it.
Data returned: 230 °C
